Where do these numbers come from? They come from PubChem BioAssay.

# Target or system: Pro-neuregulin-1, membrane-bound isoform (Homo sapiens) (UniProt Q02297)
# Sequence (Q02297 whole entry, looked up, canonical isoform): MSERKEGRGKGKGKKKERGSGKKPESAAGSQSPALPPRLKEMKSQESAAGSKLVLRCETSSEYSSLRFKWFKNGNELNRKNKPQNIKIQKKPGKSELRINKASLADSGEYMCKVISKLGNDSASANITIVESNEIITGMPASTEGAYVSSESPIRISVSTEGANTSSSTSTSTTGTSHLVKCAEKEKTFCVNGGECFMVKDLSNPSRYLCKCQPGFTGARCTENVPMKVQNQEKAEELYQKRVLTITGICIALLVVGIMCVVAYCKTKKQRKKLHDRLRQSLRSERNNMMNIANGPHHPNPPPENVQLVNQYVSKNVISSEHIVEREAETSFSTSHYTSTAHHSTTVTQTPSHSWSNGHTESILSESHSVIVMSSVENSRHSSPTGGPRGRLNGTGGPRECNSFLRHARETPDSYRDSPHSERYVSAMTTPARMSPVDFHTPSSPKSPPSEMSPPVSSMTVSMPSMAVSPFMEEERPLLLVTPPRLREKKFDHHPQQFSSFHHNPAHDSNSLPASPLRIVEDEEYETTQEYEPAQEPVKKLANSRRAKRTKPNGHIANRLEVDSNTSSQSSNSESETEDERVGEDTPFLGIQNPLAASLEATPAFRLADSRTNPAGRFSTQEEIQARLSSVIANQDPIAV
# Measurement notes: NRG1 binders on small-molecule microarrays, primary screen, psychiatric disease protein project, biochemical, small-molecule microarray, fluorescence 635/667 (AID 1075);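 note: score combines 667 nm spot fluorescence with signal to noise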
# Stated conditions: NRG1 binding, 635 nm fluorescence, higher = more signal
The entries below come with measured composite z-score values attached.
Answer field: number only, no words.

Here is how some compounds turned out for composite z-score.
| Compound | Target or system | Experimental result |
| --- | --- | --- |
| COc1ccc([Si](C)(C)[C@@H]2[C@@H](CCO)O[C@]3(C(=O)N(Cc4ccc(N(C=O)c5ccccc5)cc4)c4ccccc43)[C@H]2C)cc1 | Pro-neuregulin-1, membrane-bound isoform (Homo sapiens) (UniProt Q02297) | 0.508 |
| CCC(CC)C(O)C1C=CC2C(=O)NC(=O)C2N1Nc1ccc(Cl)cc1Cl (stereo not given) | Pro-neuregulin-1, membrane-bound isoform (Homo sapiens) (UniProt Q02297) | 0.971 |

## Input Value wanted: composite z-score (Pro-neuregulin-1, membrane-bound isoform (Homo sapiens) (UniProt Q02297)) of entry C=C[C@H](C)[C@@H](OC(=O)Nc1ccc(OC)cc1)c1ccc(O)c2ccccc12
## Output 0.3

## Input For Pro-neuregulin-1, membrane-bound isoform (Homo sapiens) (UniProt Q02297), provide composite z-score of COc1ccc(C#Cc2ccc3c(c2)[C@]2(C(=O)N3)[C@H](C(=O)NC[C@H](O)c3ccccc3)[C@H]3C(=O)O[C@H](c4ccccc4)[C@H](c4ccccc4)N3[C@@H]2c2ccc(O)cc2)cc1 please.
## Output 1.52

## Input Under Pro-neuregulin-1, membrane-bound isoform (Homo sapiens) (UniProt Q02297): composite z-score value of O=C1NC(=O)C2C1C=CC(C(O)c1cc(C(F)(F)F)cc(C(F)(F)F)c1)N2Nc1ccccn1 (stereo not given) ?
## Output 0.969
